Tested on: Yellow Fever Mosquito (YFM) (Aedes aegypti)
TEST SUMMARY: Bioassay on Yellow Fever Mosquito (YFM) larvae, 96-well plate
Format: in vivo
CONDITION PARAMETERS: Table ABCD; about 1 day-old larvae, master plate 4000 ppm in DMSO diluted, scored on mortality after 3 days
Where a name gives a salt, the structure may show the parent alone.
REPORTED PROPERTY: YFM % Control (or Mortality) rating

                                   molecule                    reported_property  observed_value
0  NC1Cc2ccc(-c3ncn(-c4ccc(OC(F)(F)F)cc4)n3)cc2C1 (stereo not shown) [C3, dihydrochloride]  YFM % Control (or Mortality) rating      A (80-100)
1  CC(C)(C)OC(=O)NC1Cc2ccc(-c3ncn(-c4ccc(OC(F)(F)F)cc4)n3)cc2C1 (stereo not shown) [C1]  YFM % Control (or Mortality) rating      A (80-100)

###

Test system: Green Peach Aphid (GPA) (Myzus persicae)
TEST SUMMARY: Bioassay on Green Peach Aphid (GPA), foliar spray on cabbage seedlings
Format: in vivo
CONDITION PARAMETERS: 72 h, Table ABC, 200 ppm foliar spray on cabbage seedlings, graded after three days, Abbott corrected % control, read-out: GPA % Control (or Mortality) rating
Listed molecules paired with reported mortality at 200 ppm

Example molecules with recorded mortality at 200 ppm:
>>> df
                                   molecule                             system_tested  observed_value
0  Cc1ccc(C(C)C)c(N2C(=O)CS/C2=N\C(=O)NC2Cc3ccc(-c4ncn(-c5ccc(OC(F)(F)F)cc5)n4)cc3C2)c1 (stereo not drawn)  Green Peach Aphid (GPA) (Myzus persicae)        0 to 80%
1  O=C(/N=C1\SCC(=O)N1c1ccccc1C1CC1)NC1Cc2ccc(-c3ncn(-c4ccc(OC(F)(F)F)cc4)n3)cc2C1 (stereo not drawn)  Green Peach Aphid (GPA) (Myzus persicae)        0 to 80%
2  CCCc1ccc(C)cc1N1C(=O)CS/C1=N\C(=O)NC1Cc2ccc(-c3ncn(-c4ccc(OC(F)(F)F)cc4)n3)cc2C1 (stereo not drawn)  Green Peach Aphid (GPA) (Myzus persicae)        0 to 80%
3  CCc1ccccc1N1C(=O)CS/C1=N\C(=O)NC1Cc2ccc(-c3ncn(-c4ccc(OC(F)(F)F)cc4)n3)cc2C1 (stereo not drawn)  Green Peach Aphid (GPA) (Myzus persicae)              0%
4  CC1S/C(=N\C(=O)NC2Cc3ccc(-c4ncn(-c5ccc(OC(F)(F)F)cc5)n4)cc3C2)N(c2ccccc2C(C)C)C1=O (stereo not drawn)  Green Peach Aphid (GPA) (Myzus persicae)        0 to 80%

Here's the next entry for you.
If you can, please state the reported mortality at 200 ppm value of Cc1ccc(C(C)C)c(N2C(=O)CS/C2=N\C(=O)NC2Cc3ccc(-c4ncn(-c5ccc(OC(F)(F)C(F)(F)F)cc5)n4)cc3C2)c1 (stereo not drawn) . 0 to 80%
